Values from PubChem BioAssay (NCI)

tested on: MOLT-4 leukemia; assay: NCI-60 one-dose screen, 48 h (100 = growth as untreated, 0 = no growth, -100 = all killed); conditions: 10 µM unless noted
This is part of a sample that, as a whole, favours compounds with a hit. Of some 83,000 tested, about 20% had one in any assay.
compounds and their reported growth
Hi! Could you send only the number? It should be in %, unit omitted.

Recorded growth, per entry:
COc1ccccc1OCC(=O)Nc1sc2c(c1C(N)=O)CCC2 ... 26
NC(=O)c1c(NC(=O)c2ccc3c(c2)OCO3)sc2c1CCC(=O)C2 ... -20.8
CC(Br)C(O)c1cc2c(cc1Br)OCO2 (stereo unspecified) ... 104
O=S(=O)(c1ccccc1)n1ccc(-c2ccc3c(c2)CCO3)n1 ... 85.6
COc1ccc(/C=C/c2nc(N3CCOCC3)c3nc(Cl)c(Cl)cc3n2)cc1OC ... 87.6

Continue with the compound presented below.
Q: Which growth value belongs to CN(C)c1ncc(-c2ccc(C(F)(F)F)cc2)c(NC2CCCCCC2)n1 ?
A: 76.5

---

tested on: 786-0 renal; assay: NCI-60 one-dose screen, 48 h (100 = growth as untreated, 0 = no growth, -100 = all killed); conditions: 10 µM unless noted
This is part of a sample that, as a whole, favours compounds with a hit. Of some 83,000 tested, about 20% had one in any assay. Active and inactive are the calls of the source. Rule for the calls: active = growth percent below 10; inactive = the rest.
molecules and their reported growth

Recorded growth, per entry:
O=C(CSc1nc(-c2ccc(Cl)cc2)cn1-c1ccc(Cl)cc1)c1ccc(Br)cc1 ... 34.7% (inactive)
CCN(Cc1ccc(CN(CC)C(=O)C(Cl)(Cl)Cl)cc1)C(=O)C(Cl)(Cl)Cl ... 72.6% (inactive)
COc1cc(/C=C\c2cc(OC)c(OC)c(OC)c2)cc(N/C=C\C(=O)c2c[nH]c3ccccc23)c1OC ... -5.56% (active)
CC/C(=C(\c1ccc(O)cc1)c1ccc(OCCN(C)CCN(C)C(=O)CCC(=O)c2c(C)[nH]c(/C=C3\N=C(c4ccc[nH]4)C=C3OC)c2C)cc1)c1ccccc1 ... 87.5% (inactive)
COc1cc(Cn2c(-c3nonc3N)nc3ccccc32)ccc1C ... 40.3% (inactive)

Q: For the record CCN1C(=S)N(CC)C2Nn3c(s/c(=C4\C(=O)N(C)c5ccccc54)c3=O)=NC21 (centres undefined) , what value of growth is listed for 786-0 renal?
A: 56.2% (inactive)

Q: Now consider COc1cccc(-n2cc(-c3nc(Cl)c4ccccc4n3)nn2)c1 .
A: 97.8% (inactive)

Q: Now consider COc1cc(C2C=C(C)N=C3SC=CN32)cc(OC)c1OC (centres undefined) .
A: 113% (inactive)

Q: Now consider COC(=O)c1ccc(C)cc1 .
A: 103% (inactive)

Q: Now consider COC12CC(=O)C(C(C)=O)=C(O)C1(C)c1c(O)c(C)c(O)c(C(C)=O)c1O2 (centres undefined) .
A: 60.8% (inactive)

Q: Now consider CC(C)(C)OC(=O)N1C/C(=C\c2cccs2)C(=O)/C(=C/c2cccs2)C1 .
A: 81.4% (inactive)

Q: Now consider CC(=O)c1cc(C(=O)c2ccc3c(c2)Sc2ccccc2N3)c2cc(C)ccn12 .
A: 9.68% (active)

Q: Now consider c1ccc([P+](CCC[P+](c2ccccc2)(c2ccccc2)c2ccccc2)(c2ccccc2)c2ccccc2)cc1 .
A: 92.5% (inactive)

Q: Now consider CCOC(=O)c1cc(/C(=N\O)c2cc(OC)c(OC)c(OC)c2)n2cc(C)cc(C)c12 .
A: 19.1% (inactive)

Q: Now consider Nc1nc(N)c2nc(CNc3ccc(C(=O)CC(CCC(=O)O)C(=O)O)cc3)cnc2n1 (centres undefined) .
A: 20.9% (inactive)

Q: Now consider O=C(O)c1ccc(-n2cc(CNc3ccc(C(F)(F)F)cc3)c(-c3ccccc3)n2)cc1 .
A: 99.1% (inactive)

Q: Now consider COC(=O)CCCCCN=Cc1c(O)c(O)c(C(C)C)c2cc(C)c(-c3c(C)cc4c(C(C)C)c(O)c(O)c(C=NCCCCCC(=O)OC)c4c3O)c(O)c12 .
A: 28.1% (inactive)

Q: Now consider O=C(NCCc1c[nH]c2ccccc12)C1Cc2ccccc2CN1C(=O)c1ccco1 (centres undefined) .
A: 104% (inactive)

Q: Now consider Nc1c(C(=O)Nc2cccc(C(F)(F)F)c2)sc2nc3c(cc12)CCCCC3 .
A: -62.8% (active)

---

test system: SK-MEL-5 melanoma; test: NCI-60 one-dose screen, 48 h; conditions: 10 µM unless noted
The panel holds about 83,000 compounds, 20% with a hit somewhere; the sample as a whole holds those more often. Calls of active or inactive are those of the source. How the source made its calls: active means growth percent below 10; inactive means the rest.
Tick one outcome: TRUE (active), FALSE (inactive)

Answered cases to consult:
CC(=O)Nc1ccc2c(c1)/C(=C\C=C/c1ccc([N+](C)(C)C)cc1)c1ccccc1-2 ... FALSE
COc1ccc(/C=C/C(=O)c2cccc(B(O)O)c2)cc1O ... FALSE
Cc1cc2c(C(C)C)c(O)c(O)c(C=NCCCCCCC(=O)O)c2c(O)c1-c1c(C)cc2c(C(C)C)c(O)c(O)c(C=NCCCCCCC(=O)O)c2c1O ... FALSE
COc1cccc(C2CC(=O)Nc3c2c(C)nn3-c2nc3ccccc3[nH]2)c1OC (stereo unspecified) ... FALSE
COc1cc(C(=O)/C=C/c2cc(C(=O)c3cc(OC)c(OC)c(OC)c3)ccc2OC)ccc1N ... TRUE

Q: Recorded test outcome, item O=C1C2=C(C(=O)c3c(O)ccc(O)c31)N(c1cccnc1)Cc1ccccc1O2
A: FALSE

---

tested on: A498 renal; assay: NCI-60 one-dose screen, 48 h; details: 10 µM unless noted
About 83,000 compounds went through this panel and 20% of them were active in at least one assay; those are over-represented in the sample as a whole. Calls of active or inactive are those of the source. How the source made its calls: active means growth percent below 10; inactive means the rest.
Tick one outcome: True = active, False = inactive

Answered cases to consult:
COc1ccc(-c2nnc(COc3ccc(NC(=O)Nc4ccc(Cl)c(C(F)(F)F)c4)cc3F)o2)cc1 ... True
CCn1cc(C(=O)O)c(=O)c2cc(F)c(N3CCN(S(=O)(=O)c4ccc(Cl)cc4Cl)CC3)cc21 ... True
COc1ccc(/C=C/c2cc(N3CCOCC3)c3cc(F)c(F)cc3n2)cc1OC ... False
CC(C)C[C@H](NC(=O)Cn1ccc(NCc2ccccc2)cc1=O)B(O)O ... True
COc1ccc(C(=O)N2CCN(C(=O)c3cc(OC)c(OC)c(OC)c3)CC2)cc1OCCCCOc1cc2c(cc1OC)C(=O)N1CCC[C@H]1C=N2 ... False
CCCCCCCCCCn1cc[n+](C)c1 ... False
COc1ccc(/C=c2\sc3n(c2=O)C2C(NN=3)N(C)C(=O)N2C)cc1 (centres undefined) ... True
Nc1c(C(=O)Nc2cccc([N+](=O)[O-])c2)sc2nc3c(cc12)C(O)CCC3 (centres undefined) ... False
COc1ccc(Cl)cc1NC(N)=S ... False
Cc1cc2c(c(=O)o1)C(c1ccc(OC(=O)N3CCOCC3)cc1)C(C#N)=C(N)O2 (centres undefined) ... False

Would you kindly look at the next entry?
Q: Recorded test outcome, item O=C(O)c1cccc([N+](=O)[O-])c1/C=C/c1ccccc1
A: False

---

test system: SK-OV-3 ovarian; assay: NCI-60 one-dose screen, 48 h (100 = growth as untreated, 0 = no growth, -100 = all killed); conditions: 10 µM unless noted
The panel holds about 83,000 compounds, 20% with a hit somewhere; the sample as a whole holds those more often. Activity calls are given as the source filed them. Rule for the calls: active = growth percent below 10; inactive = the rest.
MEASURE_NAME: growth

Recorded growth, per entry:
CC(C)N(Cc1ccc(CN(C(=O)CCl)C(C)C)cc1)C(=O)CCl ... 49.7% (inactive)
COc1cc(-c2n[nH]nc2-c2ccc3c(c2)OCCO3)cc(OC)c1OC ... 3.32% (active)
CCn1c(=O)c2c(=O)c3c4c(oc3oc2c2ccccc21)C(=O)c1ccccc1C4=O ... 102% (inactive)
Cc1cccc(-n2c(C)nc3ccc(NC(=O)NCCCl)cc3c2=O)c1 ... 102% (inactive)

Continue with the compound presented below.
Q: Which growth value belongs to COc1ccc(/C=C/c2cc(N3CCOCC3)c3cc(F)c(F)cc3n2)cc1OC ?
A: 55.5% (inactive)

---

system: PC-3 prostate; experiment: NCI-60 one-dose screen, 48 h (100 = growth as untreated, 0 = no growth, -100 = all killed); conditions: 10 µM unless noted
Compounds without any hit were thinned out: in the full panel of roughly 83,000, 20% have a hit.
Grouping key: growth. Bins: Low = under 30%, Mid = from 30% up to 80%, High = 80% and over

Answered cases to consult:
CC1Cc2c(N(C)C)ncnc2N(C)c2ccc(Cl)cc21 (stereo unspecified) ... Mid
COc1cc(-c2n[nH]nc2-c2ccc3c(c2)OCCO3)cc(OC)c1OC ... Low
CC(=O)n1cc([C@H]2CC[C@H](c3cn(C(C)=O)c4ccccc34)c3c2[nH]c2ccccc32)c2ccccc21 ... Mid

Q: Band for the recorded growth of O=S(=O)(NCCCNc1cc(-c2cn(-c3ccccc3)nc2-c2cccc(O)c2)ccn1)c1ccc(C(F)(F)F)cc1 ?
A: Low

Q: Now consider Cc1ccc(Cn2c(-c3cccs3)nc3ccccc32)cc1 .
A: Mid

Q: Now consider CCCCCc1c(C)[nH]c(/C=c2\[nH]/c(=C3/C=c4ccccc4=N3)cc2OC)c1C .
A: Low

Q: Now consider COc1ccc(S(=O)(=O)N2CCN(c3cc4c(cc3F)c(=O)c(C(=O)O)cn4C3CC3)CC2)c(OC)c1 .
A: High

Q: Now consider C=C1C(=O)O[C@H]2[C@H](O)[C@@H](C)CCC/C(C)=C/CC[C@@]3(C)O[C@@H]3C[C@@H]12 .
A: Mid

Q: Now consider Clc1nc(Cl)c2ncn(C/C=C/Cn3cnc4c(Cl)nc(Cl)nc43)c2n1 .
A: Mid

Q: Now consider c1cc(-c2ccc3c(c2)OCO3)n2nccc2n1 .
A: High

Q: Now consider COc1cccc(NC(=O)Cn2cc3c(=O)oc4ccccc4c3n2)c1 .
A: High
